protocol summary: small-molecule binders of probe aLefty1, primary screen, biochemical, small-molecule microarray, 635/667 nm fluorescence (AID 1153);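 note: score merges spot fluorescence with signal-to-noise ratio from the scanned slide images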
condition summary: higher = more signal
Classification field: enter yes (1) for composite z-score values not below 0.1, no (0) for values below it.

>  <compound>
COC(=O)[C@@]1(Cc2ccc(OC)cc2)[C@H]2c3cc(C(=O)N(C)C)n(CCO)c3C[C@H]2CN1C(=O)c1ccccc1

>  <class assignment>
yes (1)

$$$$
>  <compound>
CCCNC(=O)[C@@H]1c2ccccc2C(=O)N(C(C)C)[C@H]1c1ccc(CO)cc1

>  <class assignment>
yes (1)

$$$$
>  <compound>
CN(C)CCCNC(=O)[C@@H]1c2ccccc2C(=O)N(Cc2ccccc2Cl)[C@H]1c1ccc(CO)cc1

>  <class assignment>
no (0)

$$$$
>  <compound>
CN1C(=O)C2C=CC(C(O)c3cccc(O)c3)N(Nc3ccccc3)C2C1=O (configuration not stated)

>  <class assignment>
yes (1)

$$$$
>  <compound>
CCOC(=O)C1=CC[C@@H](c2cccc(Cl)c2)N(S(=O)(=O)c2ccc(C)cc2)C1

>  <class assignment>
no (0)

$$$$
>  <compound>
COCCOC(=O)N1C(=O)[C@@]2(c3cc(C#CC4(O)CCCCCC4)ccc31)[C@H](c1ccc(O)cc1)N1[C@H](c3ccccc3)[C@H](c3ccccc3)OC(=O)[C@H]1[C@@H]2C(=O)NC[C@H](O)c1ccccc1

>  <class assignment>
yes (1)

$$$$
>  <compound>
[N-]=[N+]=NCc1ccccc1C[C@@]1(C(=O)N2CCCCC2)N=C(c2ccc(OCCCO)cc2)O[C@@H]1c1ccccc1

>  <class assignment>
no (0)

$$$$

* * *

protocol summary: FRG1 promoter luciferase signal modulators, primary screen, FRG1 inhibition for FSHD, cell-based, C2C12 myotubes, firefly/Renilla luciferase, luminescence (AID 1084)
condition summary: higher = more signal, called active from +8 up or from −8 down
# cutoff 0.2 applies to z-score; >= gives Y, < gives N

>  <compound>
CCOc1cc(C(O)C2C=CC3C(=O)N(C)C(=O)C3N2Nc2ccccc2)ccc1O (stereo not drawn)

>  <class assignment>
Y

$$$$
>  <compound>
CC(C)C(=C=CC[C@H](O)c1cccc(OCCO)c1)C[C@H](O)c1cc(Cl)cc(Cl)c1O

>  <class assignment>
Y

$$$$
>  <compound>
O=C1N(Cc2ccccc2)c2ccccc2[C@@H]2OC(c3ccc(OCCCO)cc3)=N[C@]12Cc1ccccc1

>  <class assignment>
N

$$$$
>  <compound>
CO[C@]12C=C(Br)[C@@H](C[C@@H]1c1cccc(C)c1)[C@@]1(CO1)C2=O

>  <class assignment>
Y

$$$$
>  <compound>
Cn1cccc1C(O)C1C=CC2C(=O)NC(=O)C2N1Nc1ccc(Cl)cc1Cl (stereo not drawn)

>  <class assignment>
Y

$$$$
>  <compound>
[N-]=[N+]=Nc1ccccc1C[C@]1(C(=O)N2CCOCC2)N=C(c2ccc(OCCCO)cc2)O[C@H]1c1ccccc1

>  <class assignment>
N

$$$$
>  <compound>
CCOC(=O)C1=CC[C@@H](c2ccc(OCc3ccccc3)c(OC)c2)N(S(=O)(=O)c2ccc(C)cc2)[C@H]1c1ccc(SC)cc1

>  <class assignment>
N

$$$$
>  <compound>
O=c1n(-c2ccccc2)c(=O)n2n1CC(COc1ccccc1)=C([C@H](O)CCc1ccccc1)[C@@H]2CO

>  <class assignment>
N

$$$$

* * *

protocol summary: splicing luciferase reporter signal modulators, primary screen, spliceosome inhibition project, cell-based, HEK293, splice +/- reporter (AID 1101);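 note: HEK293 cells carrying a splicing-competent luciferase reporter gene; test concentration not given here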
condition summary: luminescence, 24 h, higher = more signal, called active from +8 up or from −8 down
Readings of z-score for the listed compounds
quantity kind: z-score

>  <compound>
O=C1NC(=O)C2C1C=CC(C(O)CCc1ccccc1)N2Nc1ccc(Cl)cc1Cl (centres undefined)

>  <measured value>
1.5

$$$$
>  <compound>
O=C1C2C=CC(C(O)c3ccc(F)cc3)N(n3cnnc3)C2C(=O)N1Cc1ccccc1 (centres undefined)

>  <measured value>
-0.284

$$$$
>  <compound>
CCCCO[C@H]1C[C@H]2C(I)=C[C@@H]1C(=O)[C@]21CO1

>  <measured value>
-0.26

$$$$
>  <compound>
O=c1n(-c2ccccc2)c(=O)n2n1CC(COc1ccccc1)=C([C@H](O)CCc1ccccc1)[C@@H]2CO

>  <measured value>
-1.54

$$$$
>  <compound>
NCCCCCNC(=O)[C@@H]1C[C@@H]2C(=O)NCC(=O)N2[C@@H]1c1cccc(OCCO)c1

>  <measured value>
-0.852

$$$$
>  <compound>
Cc1cc(C)c(C(O)C2C=CC3C(=O)NC(=O)C3N2Nc2ccc(Cl)cc2Cl)c(C)c1 (centres undefined)

>  <measured value>
0.465

$$$$
>  <compound>
O=C1O[C@@H](c2ccccc2)[C@@H](c2ccccc2)N2[C@@H](c3ccccc3OCCO)[C@]3(C(=O)Nc4ccc(C#CCCO)cc43)[C@@H](C(=O)N3CCCCCCC3)[C@H]12

>  <measured value>
-1.32

$$$$
>  <compound>
CCOC(=O)C1CCCCN1 (centres undefined)

>  <measured value>
-0.283

$$$$
>  <compound>
COCCOC(=O)N1C(=O)[C@@]2(c3cc(C#Cc4ccc(OC)cc4)ccc31)[C@H](C(=O)Nc1nc3ccccc3s1)[C@H]1C(=O)O[C@H](c3ccccc3)[C@H](c3ccccc3)N1[C@@H]2c1ccc(O)cc1

>  <measured value>
-0.591

$$$$

* * *

Tested on: Human papillomavirus type 1a protein E7 (residues 44-93)
protocol summary: HPV1a E7 fragment binders on microarrays, primary screen, biochemical, small-molecule microarray, residues 44-93, 635 nm fluorescence (AID 1108);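 note: E7 fragment applied at 1 µg/mL in TBST for 1 h at 4 C; score combines spot fluorescence with its signal to noise ratio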
condition summary: small-molecule microarray binding, fluorescence 635 nm; higher = more signal
quantity kind: composite z-score

>  <molecule>
CC1=C[C@@]2(CO)C(=O)[C@]3(CO3)[C@@H]1[C@H]1[C@]2(C)C=C(CO)C(=O)[C@]12CO2

>  <quantity kind>
composite z-score

>  <measured value>
0.122

$$$$
>  <molecule>
CC1CC/C=C\[C@H]2OC34C=CCN(C(C)C)C(=O)[C@H]3N(CCCCCCO)C(=O)[C@@H]4C2C(=O)O1 (some centres undefined)

>  <quantity kind>
composite z-score

>  <measured value>
-1.9

$$$$
>  <molecule>
CC=CC(O)C1C=CC2C(=O)N(c3ccccc3)C(=O)C2N1Nc1ccccc1F (centres undefined)

>  <quantity kind>
composite z-score

>  <measured value>
0.286

$$$$
>  <molecule>
C=CCNC(=O)[C@H]1[C@@H]2C(=O)O[C@@H](c3ccccc3)[C@@H](c3ccccc3)N2[C@@H](c2ccc(O)cc2)[C@]12C(=O)Nc1ccc(C#CC3(O)CCCCCC3)cc12

>  <quantity kind>
composite z-score

>  <measured value>
0.903

$$$$

* * *

protocol summary: adipocyte viability effects, profiling panel, cell-based, 3T3-L1 adipocytes, calcein-AM fluorescence, 48 h, basal (AID 1163); note: test concentration not given here
condition summary: 3T3-L1 adipocytes viability, higher = more signal
quantity kind: z-score

>  <compound>
CCOC(=O)C1=CC[C@@H](c2ccccc2C(F)(F)F)N(S(=O)(=O)c2ccc(C)cc2)[C@H]1c1ccc(C#N)cc1

>  <measured value>
-0.842

$$$$
>  <compound>
COc1cc2c(cc1OC)CN(C(=O)[C@@H]1[C@H]3C(=O)O[C@H](c4ccccc4)[C@H](c4ccccc4)N3[C@H](c3ccc(OCCO)cc3)[C@@]13C(=O)Nc1ccccc13)CC2

>  <measured value>
1.04

$$$$
>  <compound>
C[C@@H]1ON(c2ccc(C(=O)OC(C)(C)C)cc2)[C@H](c2ccc(O)cc2)[C@H]1C(=O)N1C(=O)OC[C@H]1Cc1ccccc1

>  <measured value>
0.82

$$$$
>  <compound>
COC(=O)[C@@]1(Cc2ccc(OC)cc2)[C@H]2c3cc(C(=O)N(C)C)n(Cc4ccc(Cl)c(C(F)(F)F)c4)c3C[C@H]2CN1C(=O)c1ccccc1

>  <measured value>
-0.88

$$$$
>  <compound>
CC1CC/C=C\[C@H]2OC34C=CCN(c5ccc(Cl)cc5)C(=O)[C@H]3N(CCCCCO)C(=O)[C@]4(C)C2C(=O)O1 (some centres undefined)

>  <measured value>
-0.607

$$$$
>  <compound>
O=C1NC(=O)C2C1C=CC(C(O)c1c(F)cccc1Cl)N2Nc1ccc(Cl)cc1Cl (centres undefined)

>  <measured value>
0.0772

$$$$
>  <compound>
COCCCNC(=O)[C@@]1(Sc2ccc(C)cc2)CC(=O)N(C2CCCCC2)[C@@H]1c1ccc(CO)cc1

>  <measured value>
0.152

$$$$
>  <compound>
C[C@H]1NC(=O)[C@@]23C(=O)N[C@@H](Cc4ccccc4)C2[C@H](C)[C@@]2(C)O[C@H]2C3/C=C/C/C=C\CNC(=O)[C@H](Cc2ccccc2)NC1=O (some centres undefined)

>  <measured value>
0.76

$$$$
>  <compound>
COC(=O)Cn1c(C(=O)N(C)C)cc2c1C[C@H]1CN(C(=O)c3ccccc3)[C@@](Cc3ccc(F)cc3)(C(=O)OC)[C@@H]21

>  <measured value>
-1.23

$$$$
>  <compound>
COC(=O)CCCCCCC(=O)Nc1ccc(NC(=O)CCCC[P+](c2ccccc2)(c2ccccc2)c2ccccc2)cc1

>  <measured value>
-0.297

$$$$
>  <compound>
COCCOC(=O)N1C(=O)[C@@]2(c3cc(C#CCCO)ccc31)[C@H](C(=O)Nc1nc3ccccc3s1)[C@H]1C(=O)O[C@H](c3ccccc3)[C@H](c3ccccc3)N1[C@@H]2c1ccccc1OCCO

>  <measured value>
0.121

$$$$
>  <compound>
COCCCNC(=O)[C@]1(CCS(=O)(=O)c2ccccc2)N=C(c2ccc(OCCCO)cc2)O[C@@H]1c1ccccc1N=[N+]=[N-]

>  <measured value>
0.108

$$$$
>  <compound>
CCOC(=O)c1ccc(NC(=O)O[C@H]2[C@H](OC(=O)Nc3ccc4c(c3)OCO4)[C@@H](OC(=O)Nc3ccc4c(c3)OCO4)[C@@H](OC)O[C@@H]2CO)cc1

>  <measured value>
0.558

$$$$
>  <compound>
CC(C)N1C(=O)c2ccccc2[C@@H](C(=O)NC2CC2)[C@@H]1c1ccc(CO)cc1

>  <measured value>
0.774

$$$$
